# MEASUREMENT_DESCRIPTION: xn = mol fraction of the nth substance listed, in the solute-free solvent
# RUN_CONDITIONS: 313.15 K; x2 = 0.5
What solubility (g/100 g solution) was measured for each of the following?

{"MOLECULE": "CC(C)C(=O)Nc1ccc([N+](=O)[O-])c(C(F)(F)F)c1 + CCOC(C)=O + CC(C)O", "solubility (g/100 g solution)": 56.1}

Batch lookup, solubility (g/100 g solution) per entry.
1. CC(C)C(=O)Nc1ccc([N+](=O)[O-])c(C(F)(F)F)c1 + CC(C)=O + CC(C)O
2. Cl.NC1CCSC1=O (centres undefined) + CO + CC#N
3. CC(C)C(=O)Nc1ccc([N+](=O)[O-])c(C(F)(F)F)c1 + C1CCOC1 + CC(C)O

Reply:
65
4.25
65.3
